TEST_METHOD_NOTES: Microsomal stability in human liver microsomes assessed as intrinsic clearance
Type: ADME, Microsome
CONDITION_NOTES: read-out: CLH
Provide the recorded CLint scaled for the entries that follow.
One number for each entry, in mL/min/kg.

STRUCTURE_SMILES: C[C@@H](CN1CCC(c2n[nH]c3ccccc23)CC1)NC(=O)c1ccc(F)cc1
CLint scaled [mL/min/kg]: 42

STRUCTURE_SMILES: C[C@@H]1CN(C(=O)[C@H](C)N2CCC(n3c(=O)[nH]c4ccccc43)CC2)C[C@H](C)N1
CLint scaled [mL/min/kg]: 6.9

STRUCTURE_SMILES: C[C@@H](C(=O)N1CCC(F)(F)C1)N1CCC(n2c(=O)[nH]c3ccccc32)CC1
CLint scaled [mL/min/kg]: 10

Below: the item to evaluate.
Record summary for `C[C@@H]1CN(C(=O)[C@H](C)N2CCC(n3c(=O)[nH]c4ccccc43)CC2)C[C@@H](C)N1` : reported CLint scaled = 6

###

Provide the recorded CL free for the entries that follow.
TEST_METHOD_NOTES: Unbound clearance in iv dosed rat administered as cassette dose
Type: ADME, organism-based
CONDITION_NOTES: in vivo
Give bare numbers, in mL/min/kg.

STRUCTURE_SMILES: C[C@@H]1CN(C(=O)[C@H](C)N2CCC(n3c(=O)[nH]c4ccccc43)CC2)C[C@H](C)N1
QUANTITATIVE_READOUT: 68
//
STRUCTURE_SMILES: C[C@@H](CN1CCC2(CC1)OC(=O)Nc1cccnc12)NC(=O)c1ccc(F)cc1
QUANTITATIVE_READOUT: 83
//
STRUCTURE_SMILES: C[C@@H](C(=O)N1CCNC(C)(C)C1)N1CCC(n2c(=O)[nH]c3ccccc32)CC1
QUANTITATIVE_READOUT: 73
//
STRUCTURE_SMILES: C[C@@H](CN1CCC2(CC1)OC(=O)NC[C@H]2c1cccc(F)c1)NC(=O)c1ccc(F)cc1
QUANTITATIVE_READOUT: 308
//
STRUCTURE_SMILES: C[C@@H](CN1CCC2(CC1)OC(=O)Nc1ccccc12)NC(=O)c1ccc(F)cc1
QUANTITATIVE_READOUT: 172

Quick request: CL free for each listed item, please.
1. C[C@@H](CN1CCC2(CC1)OC(=O)Nc1ccncc12)NC(=O)c1ccc(F)cc1
2. C[C@@H](C(=O)N1CCC(F)(F)C1)N1CCC(n2c(=O)[nH]c3ccccc32)CC1

## Output
[69, 192]

###

STUDY_TARGET: Phospholipase D2 (Homo sapiens, UniProt O14939)
Sequence (O14939 whole entry): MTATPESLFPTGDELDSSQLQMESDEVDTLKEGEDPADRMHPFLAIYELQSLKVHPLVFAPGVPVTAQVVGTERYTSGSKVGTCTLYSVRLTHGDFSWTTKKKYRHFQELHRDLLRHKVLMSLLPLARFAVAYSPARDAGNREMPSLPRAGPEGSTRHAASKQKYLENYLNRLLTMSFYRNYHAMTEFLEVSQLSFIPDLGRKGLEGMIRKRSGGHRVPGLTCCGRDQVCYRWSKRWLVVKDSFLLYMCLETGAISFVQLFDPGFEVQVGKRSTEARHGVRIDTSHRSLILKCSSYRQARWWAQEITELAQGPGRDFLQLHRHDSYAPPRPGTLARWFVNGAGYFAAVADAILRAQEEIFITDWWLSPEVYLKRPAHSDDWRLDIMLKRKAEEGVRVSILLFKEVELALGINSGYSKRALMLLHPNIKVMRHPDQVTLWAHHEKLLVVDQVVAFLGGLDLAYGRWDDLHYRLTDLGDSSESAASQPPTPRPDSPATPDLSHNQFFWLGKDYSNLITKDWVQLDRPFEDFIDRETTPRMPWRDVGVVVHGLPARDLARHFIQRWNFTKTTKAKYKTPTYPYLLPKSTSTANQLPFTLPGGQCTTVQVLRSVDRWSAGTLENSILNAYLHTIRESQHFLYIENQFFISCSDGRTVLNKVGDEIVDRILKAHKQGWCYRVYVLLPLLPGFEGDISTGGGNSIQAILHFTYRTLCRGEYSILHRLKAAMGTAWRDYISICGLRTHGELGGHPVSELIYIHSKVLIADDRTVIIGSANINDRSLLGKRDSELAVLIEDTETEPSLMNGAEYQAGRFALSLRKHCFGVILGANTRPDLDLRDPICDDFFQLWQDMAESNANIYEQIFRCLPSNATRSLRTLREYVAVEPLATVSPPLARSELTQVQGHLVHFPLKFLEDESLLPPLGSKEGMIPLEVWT
TEST_METHOD_NOTES: Inhibition of PLD2 (unknown origin) expressed in human HEK cells by immunoprecipitation
OBSERVABLE: IC50

Quick request: IC50 for each listed item, please.
1. C[C@@H](CN1CCC(n2c(=O)oc3ccccc32)CC1)NC(=O)c1ccc(F)cc1
2. C[C@@H](CN1CCC2(CC1)NC(=O)Nc1ccccc12)NC(=O)c1ccc(F)cc1
3. C[C@@H](CN1CCC(N2CCNC2=O)CC1)NC(=O)c1ccc(F)cc1

## Output
1: > 10 µM; 2: > 10 µM; 3: > 10 µM

###

STUDY_TARGET: Phospholipase D1 (Homo sapiens, UniProt Q13393)
Sequence (Q13393 whole entry): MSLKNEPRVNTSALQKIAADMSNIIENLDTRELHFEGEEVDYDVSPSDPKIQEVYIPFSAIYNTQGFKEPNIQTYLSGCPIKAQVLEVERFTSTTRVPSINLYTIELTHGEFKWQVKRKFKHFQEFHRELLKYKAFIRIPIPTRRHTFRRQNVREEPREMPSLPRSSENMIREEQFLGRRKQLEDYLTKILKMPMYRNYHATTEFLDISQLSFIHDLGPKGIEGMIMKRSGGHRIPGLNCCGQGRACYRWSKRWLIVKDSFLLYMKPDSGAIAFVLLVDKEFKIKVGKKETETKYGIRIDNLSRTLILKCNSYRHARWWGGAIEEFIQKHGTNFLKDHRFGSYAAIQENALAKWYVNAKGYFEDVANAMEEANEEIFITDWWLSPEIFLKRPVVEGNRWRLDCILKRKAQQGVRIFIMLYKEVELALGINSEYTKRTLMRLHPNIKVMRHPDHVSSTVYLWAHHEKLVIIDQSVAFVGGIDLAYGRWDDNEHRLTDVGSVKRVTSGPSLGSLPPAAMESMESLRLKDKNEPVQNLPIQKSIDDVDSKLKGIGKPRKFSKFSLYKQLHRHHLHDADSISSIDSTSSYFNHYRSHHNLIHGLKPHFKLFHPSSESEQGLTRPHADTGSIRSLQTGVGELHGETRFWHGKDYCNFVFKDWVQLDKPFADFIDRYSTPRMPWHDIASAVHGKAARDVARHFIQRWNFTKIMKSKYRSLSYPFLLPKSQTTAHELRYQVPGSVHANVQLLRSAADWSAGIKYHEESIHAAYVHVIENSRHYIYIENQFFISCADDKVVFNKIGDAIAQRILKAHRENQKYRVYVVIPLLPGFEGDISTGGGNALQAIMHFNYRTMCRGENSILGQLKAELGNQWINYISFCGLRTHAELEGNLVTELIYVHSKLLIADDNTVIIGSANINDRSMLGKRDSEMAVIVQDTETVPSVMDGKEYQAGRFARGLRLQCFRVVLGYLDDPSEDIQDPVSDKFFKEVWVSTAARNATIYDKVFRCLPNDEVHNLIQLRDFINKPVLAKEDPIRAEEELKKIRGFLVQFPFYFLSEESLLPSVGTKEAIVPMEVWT
TEST_METHOD_NOTES: Inhibition of PLD1 (unknown origin) expressed in human HEK cells by immunoprecipitation assay
OBSERVABLE: pIC50
Give bare numbers, as −log10 of the molar value.

// below: answered compounds
STRUCTURE_SMILES: C[C@@H]1CN(C(=O)[C@H](C)N2CCC(n3c(=O)[nH]c4ccccc43)CC2)Cc2ccccc21
STUDY_TARGET: Phospholipase D1 (Homo sapiens, UniProt Q13393)
OBSERVABLE: pIC50
QUANTITATIVE_READOUT: 7.00
//
STRUCTURE_SMILES: C[C@@H](CN1CCC2(CC1)OC(=O)Nc1cccnc12)NC(=O)c1ccc(F)cc1
STUDY_TARGET: Phospholipase D1 (Homo sapiens, UniProt Q13393)
OBSERVABLE: pIC50
QUANTITATIVE_READOUT: 6.70

Quick request: pIC50 for each listed item, please.
1. C[C@@H](CN1CCC2(CC1)OC(=O)Nc1ccccc12)NC(=O)c1ccc(F)cc1
2. C[C@@H](CN1CCC(n2c(=O)[nH]c3ccccc32)CC1)NC(=O)c1ccc(F)cc1
3. C[C@@H](CN1CCC2(CC1)OC(=O)Nc1cc(F)ccc12)NC(=O)c1ccc(F)cc1

## Output
1: 7.18; 2: 7.48; 3: 7.15

All values here come from ChEMBL document CHEMBL5046323.
